- TGT: Leukotriene B4 receptor 2 (Homo sapiens)
- Sequence (Q9NPC1 whole entry): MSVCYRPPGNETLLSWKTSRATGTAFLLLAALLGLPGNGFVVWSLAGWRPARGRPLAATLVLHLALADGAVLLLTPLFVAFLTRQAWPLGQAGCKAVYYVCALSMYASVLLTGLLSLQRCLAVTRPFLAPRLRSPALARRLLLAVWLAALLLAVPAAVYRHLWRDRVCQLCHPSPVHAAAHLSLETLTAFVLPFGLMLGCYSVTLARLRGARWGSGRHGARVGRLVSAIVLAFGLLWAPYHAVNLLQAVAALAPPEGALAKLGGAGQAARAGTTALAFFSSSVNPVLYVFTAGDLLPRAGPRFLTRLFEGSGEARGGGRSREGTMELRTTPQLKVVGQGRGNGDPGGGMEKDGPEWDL
- METHOD: Agonist activity at human BLT2 overexpressed in CHO-K1 cells assessed as accumulation of inositol monophosphate measured after 90 mins by HTRF assay
- Type: functional, cell-based
- SETTINGS: cho-k1
PARAMETER: EC50

>>> print(df.to_string())
                               entry_smiles  parameter  experimental_result
0  O=C(O)Cn1c2c(c3cc(F)ccc31)CN(C(=O)c1cccc3ccccc13)CC2       EC50           Not Active
1  C[C@H](CCC(=O)O)[C@H]1CC[C@H]2[C@@H]3[C@H](O)C[C@@H]4C[C@H](O)CC[C@]4(C)[C@H]3CC[C@]12C       EC50           Not Active
2  O=C(O)c1ccccc1-c1ccc(CN2C(=O)C3(CCCC3)N=C2c2ccccc2)cc1       EC50           Not Active
3  CSc1ccc(C(=O)/C=C/c2cc(C)c(OC(C)(C)C(=O)O)c(C)c2)cc1       EC50           Not Active

* * *

- TGT: Type-1 angiotensin II receptor (Homo sapiens)
- Sequence (P30556 whole entry): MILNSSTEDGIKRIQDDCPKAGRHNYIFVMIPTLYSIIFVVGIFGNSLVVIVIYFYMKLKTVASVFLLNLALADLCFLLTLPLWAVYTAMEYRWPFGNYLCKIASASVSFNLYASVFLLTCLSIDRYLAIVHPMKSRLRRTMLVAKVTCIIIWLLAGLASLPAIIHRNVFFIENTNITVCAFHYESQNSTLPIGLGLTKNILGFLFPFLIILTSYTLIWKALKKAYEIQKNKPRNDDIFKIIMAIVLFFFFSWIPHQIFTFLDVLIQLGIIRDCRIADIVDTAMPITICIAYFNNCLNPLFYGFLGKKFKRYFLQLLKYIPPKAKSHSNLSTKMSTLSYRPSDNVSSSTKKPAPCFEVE
- METHOD: Antagonist activity at human AT1 overexpressed in CHO-K1 cells in presence of 10 nM [Val5-angiotensin II measured after 90 mins by HTRF based IP-one assay
- Assay type: functional, cell-based
- SETTINGS: read-out: IC50
PARAMETER: IC50 (nM)

Some compounds with recorded IC50:
                                   compound  parameter  value_units  experimental_result
0  CCCCC1NC(C)(C)C(=O)N1Cc1ccc(-c2ccccc2-c2nnn[nH]2)cc1 (stereo unspecified)       IC50           nM                  390
1  CCCCC1=NC2(CCCCC2)C(=O)N1Cc1ccc(-c2ccccc2C(=O)O)cc1       IC50           nM                  155
2  O=C(O)c1ccccc1-c1ccc(CN2C(=O)C3(CCCC3)N=C2Cc2ccccc2)cc1       IC50           nM                 8650

A = CCCCC1=NC2(CCCC2)C(=O)N1Cc1ccc(-c2ccccc2C(=O)O)cc1
B = CCCCC1=NC(C)(C)C(=O)N1Cc1ccc(-c2ccccc2-c2nnn[nH]2)cc1
Input pair: A , B . Output: entry with lower IC50. Reply briefly: the label of your chosen item. B
(B: 32 nM, A: 190 nM)

A = CCCC[C@@H]1N(Cc2ccc(-c3ccccc3-c3nnn[nH]3)cc2)C(=O)[C@@H]2CCCN12
B = CCCC[C@H]1N(Cc2ccc(-c3ccccc3-c3nnn[nH]3)cc2)C(=O)[C@H]2CCCN21
C = CCCCC1=NC(C)(C(C)C)C(=O)N1Cc1ccc(-c2ccccc2-c2nnn[nH]2)cc1 (stereo unspecified)
D = CCCCC1=NC(C)(c2ccccc2)C(=O)N1Cc1ccc(-c2ccccc2-c2nnn[nH]2)cc1 (stereo unspecified)
Hey, quick one: sort these by IC50, low to high? # format: label list in the order the request specifies C, D, A, B
(C: 15 nM, D: 25 nM, A: 1010 nM, B: 10000 nM)

* * *

- TGT: Leukotriene B4 receptor 1 (Homo sapiens)
- METHOD: Agonist activity at human BLT1 overexpressed in CHO-K1 cells assessed as accumulation of inositol monophosphate measured after 90 mins by HTRF assay
- Type: functional, cell-based
Calls of active or inactive are those of the source. The calls are words filed in the database; no cut-off is given here.
PARAMETER: Activity

Some compounds with recorded Activity:
In [3]: df
Out[3]:
                                   compound  parameter  experimental_result
0  CCCCC1=NC(C)(C(C)C)C(=O)N1Cc1ccc(-c2ccccc2-c2nnn[nH]2)cc1 (stereo not given)   Activity             inactive
1  CCCC[C@@H]1N(Cc2ccc(-c3ccccc3-c3nnn[nH]3)cc2)C(=O)[C@@H]2CCCN12   Activity             inactive
2  CCCCC1=NC2(CCCC2)C(=O)N1Cc1ccc(-c2ccccc2-c2nnn[nH]2)cc1 [IRBESARTAN]   Activity             inactive
3  CCCCC1=NC2(CCCCC2)C(=O)N1Cc1ccc(-c2ccccc2C(=O)O)cc1   Activity             inactive
4  CCCCC1=NC(C)(C)C(=O)N1Cc1ccc(-c2ccccc2-c2nnn[nH]2)cc1   Activity             inactive

Entry under review: O=C(O)c1ccccc1-c1ccc(CN2C(=O)C3(CCCC3)N=C2c2ccccc2)cc1 . Reported Activity? inactive

Entry under review: CCCCC1NC(=O)C2(CCCC2)N1Cc1ccc(-c2ccccc2C(=O)O)cc1 (stereo not given) . Reported Activity? inactive

Entry under review: CCCCC1=NC(C)(c2ccccc2)C(=O)N1Cc1ccc(-c2ccccc2-c2nnn[nH]2)cc1 (stereo not given) . Reported Activity? inactive

Entry under review: CCCC[C@H]1N(Cc2ccc(-c3ccccc3-c3nnn[nH]3)cc2)C(=O)[C@H]2CCCN21 . Reported Activity? inactive

Entry under review: O=C(O)c1ccccc1-c1ccc(CN2C(=O)C3(CCCC3)N=C2CCc2ccccc2)cc1 . Reported Activity? inactive

Taken from ChEMBL document CHEMBL4837242.
